Listed binders paired with reported EC50 of antibody induced ADCC effect on SKOV3
- target system: T1, human CD276 protein (human, UniProt Q5ZPR3 29-534)
- T1 sequence (looked up): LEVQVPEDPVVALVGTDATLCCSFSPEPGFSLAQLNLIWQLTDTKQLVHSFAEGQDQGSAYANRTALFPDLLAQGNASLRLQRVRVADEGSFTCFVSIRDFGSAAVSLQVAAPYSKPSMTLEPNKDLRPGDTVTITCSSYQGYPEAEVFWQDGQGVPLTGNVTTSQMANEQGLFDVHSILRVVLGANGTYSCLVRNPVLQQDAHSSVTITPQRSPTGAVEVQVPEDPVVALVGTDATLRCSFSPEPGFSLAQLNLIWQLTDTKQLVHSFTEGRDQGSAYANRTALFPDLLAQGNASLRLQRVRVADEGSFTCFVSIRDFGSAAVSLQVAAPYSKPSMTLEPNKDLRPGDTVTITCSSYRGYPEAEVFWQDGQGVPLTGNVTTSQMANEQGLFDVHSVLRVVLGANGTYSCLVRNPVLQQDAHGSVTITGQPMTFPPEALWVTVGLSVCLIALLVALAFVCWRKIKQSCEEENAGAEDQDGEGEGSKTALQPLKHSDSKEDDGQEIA
- protocol details: cell-based or functional assay
Dear colleague, please return just the value in µg/mL, with no unit written.

9-E8-F9-C10 (human IgG1 chimeric antibody) (antibody, V domains shown) VH: EVQLQQSGAELVRPGTSVKISCKASGYAFSDYWLSWVKQRPGHGLEWIGDICPGSGNIYYNERFKDKVILTADRSSSTAYLQFSSLTSEDSVVYFCTRLITRVIDYWGQGTSVTVST VL: ENVLTQSPAIMSASPGEKVTMTCSASSSVNYMHWYQQKSSTSPKLWIYDTSKLSSGVPGRFSGSGSGNSYSLTISSMEAEDVATYYCFQGSGYPLTFGAGTKLELK ... 4.05
14-E7-G9-D4 (human IgG1 chimeric antibody) (antibody, V domains shown, human IgG1 chimeric antibody of the mouse clone) VH: EVQLQQSGPELVKPGASVKMSCKASGYTFTNYIMHWVKQKPGQGLEWIGYINPYNDGIKYNEKFKGKATLTSDKSSSTAYMELSSLTSEDSAVYYCTRWGNYVFYYTMDYWGQGTSVTVSS VL: QIVLSQSPAILSASPGEKVTMTCRASSSVSYMHWYQQKPGSSPKPWIYATSNLASGVPARFSGSGSGTSYSLTISRMEAEDAATYYCQQWSGNPPLTFGAGTKLELK ... 0.252

For record 15-C8-B5-G7 (human IgG1 chimeric antibody) (antibody, V domains shown, human IgG1 chimeric antibody of the mouse clone) VH: QVQLQQPGAELVKPGASVKLSCKASDYTFTSHWMHWVKQRPGQGLEWIGMIHPNSGTTHYNENFKNKATLTVDNSSSTAYMQLSSLTSEDSAVYYCAWGSSNSYFYAMAYWGQGTSVTVSS VL: QAVVTQESALTTSPGETVTLTCRSSTGAVTTSNYANWVQEKPAHLFTGLIGGTNNRAPGVPARFSGSLIGDKAALTITGAQTEDEAIYFCALWFSNHLVFGGGTKLTVL the listed EC50 of antibody induced ADCC effect on SKOV3 is 0.697
